- Tested on: UO-31 renal
- EXPERIMENT DESCRIPTION: NCI tumour cell line growth inhibition, 48 h
In this section, each of the compounds is paired with its reported log10 of TGI.
In our notation, the value equals log10 of TGI in µM.

>>> observed_measurement("CC1=NN(c2nc(N)nc(CBr)n2)C(C)(C)C1")
0.21
>>> observed_measurement("CN(C)CCNc1nc2ccccc2c2c1CCCC2")
1.44
>>> observed_measurement("COc1cc2nc(Nc3cccc(Br)c3)nc(Nc3cccc(Br)c3)c2cc1OC")
1.47
>>> observed_measurement("OCc1cc2c(ccc3sc4ccc5sc6ccc7ncccc7c6c5c4c32)s1")
0.86
>>> observed_measurement("CSC1=Nc2c(c(C)c(-c3ccccc3)n2CCCN2CCCCC2)C2=NC(=O)C[C@H](C)N12")
1.41

Lookup result for `C=CCc1[nH]c2c(OCc3ccccc3)cc(N(CC=C)C(C)=O)cc2c1C` ; measured log10 of TGI: 1.33

Record `O=C1C(Cl)=C(Sc2nnc3c4ccccc4c4ccccc4c3n2)C(=O)c2ccccc21` , field log10 of TGI: 1.45

In plain terms, `CC1(C)N=C(N)N=C(N)N1c1ccc(CCCCc2ccccc2)c(Cl)c1` has a documented log10 of TGI of 1.41

Lab book: log10 of TGI of CCCCCCCCCCCCCCCCCCNc1ccn(C2OC(COP(=O)(O)OCC3OC(n4cc(C)c(=O)[nH]c4=O)CC3F)C(O)C2O)c(=O)n1 (stereo unspecified) noted as 1.64

// recorded log10 of TGI for `C[C@]12CC[C@@H]3c4cc(OC(F)F)c(O)cc4CC[C@H]3[C@@H]1CC[C@@H]2OS(N)(=O)=O` : 1.58

----------
- Tested on: A498 renal
- EXPERIMENT DESCRIPTION: NCI tumour cell line growth inhibition, 48 h
ENDPOINT LABEL: TGI

>>> observed_measurement("CCN(CC)CC(C)(C)C(=O)/C=C/c1cccc(/C=C/C(=O)C(C)(C)CN(CC)CC)c1")
"2.71 µM"

Attention now shifts to the item below.
Value of TGI reported for the compound CCN1CCCC(C#N)(c2ccccc2)CC1 (stereo unspecified) is > 100 µM

----------
- System: RXF 393 renal
- EXPERIMENT DESCRIPTION: NCI tumour cell line growth inhibition, 48 h; in the data active = GI50 below about 0.43 µM; inactive = the rest
Lab note: assign the record to one of y for active, n for inactive

>>> qualitative_label("Nc1ccccc1NC(=O)c1ccc(CNc2nccc(-c3cccnc3)n2)cc1")
"n"

Query string: How was `NCCCNc1nc2ccccc2c2c(=O)c3cc(F)cc(F)c3sc12` classified in this test?
Result string: n

Query string: Assay result, entry `NC1=CC(=O)c2cccnc2C1=O` — outcome?
Result string: n

Query string: Please let me know the test result on file for `O=S(=O)([O-])c1ccc(N=Cc2ccccc2[O-])cc1.O=S(=O)([O-])c1ccc(N=Cc2ccccc2[O-])cc1.[O]=[U+2]=[O]` .
Result string: n

Query string: Hi, sorry to bother you, what did the test record for `N.N.NCCCCCN.O=C([O-])CCl.O=C([O-])CCl.O=C([O-])CCl.O=C([O-])CCl.[Pt+4].[Pt+4]` ?
Result string: n

Query string: Tell me the assay call for `CN1CCC(COc2cnc(-c3cccc(Cn4nc(-c5cccc(C#N)c5)ccc4=O)c3)nc2)CC1` please.
Result string: n

Query string: What did the test return for CC[C@@H]1[C@@H](C)O[C@@](O)([C@@H](C)[C@H](O)[C@H](C)[C@H]2OC(=O)/C=C/C=C/[C@H](C)[C@@H]([C@@H](C)[C@@H](O)[C@H](C)[C@@]3(O)C[C@@H](O[C@H]4C[C@@H](O)[C@H](O)C(C)O4)[C@H](CC)[C@@H](C)O3)OC(=O)/C=C/C=C/[C@@H]2C)C[C@H]1O[C@@H]1C[C@@H](O)[C@H](O)C(C)O1 (some centres not stated) ?
Result string: y
